# Tested on: Fatty-acid amide hydrolase 1 (Rattus norvegicus) (UniProt P97612)
# Sequence (P97612 whole entry): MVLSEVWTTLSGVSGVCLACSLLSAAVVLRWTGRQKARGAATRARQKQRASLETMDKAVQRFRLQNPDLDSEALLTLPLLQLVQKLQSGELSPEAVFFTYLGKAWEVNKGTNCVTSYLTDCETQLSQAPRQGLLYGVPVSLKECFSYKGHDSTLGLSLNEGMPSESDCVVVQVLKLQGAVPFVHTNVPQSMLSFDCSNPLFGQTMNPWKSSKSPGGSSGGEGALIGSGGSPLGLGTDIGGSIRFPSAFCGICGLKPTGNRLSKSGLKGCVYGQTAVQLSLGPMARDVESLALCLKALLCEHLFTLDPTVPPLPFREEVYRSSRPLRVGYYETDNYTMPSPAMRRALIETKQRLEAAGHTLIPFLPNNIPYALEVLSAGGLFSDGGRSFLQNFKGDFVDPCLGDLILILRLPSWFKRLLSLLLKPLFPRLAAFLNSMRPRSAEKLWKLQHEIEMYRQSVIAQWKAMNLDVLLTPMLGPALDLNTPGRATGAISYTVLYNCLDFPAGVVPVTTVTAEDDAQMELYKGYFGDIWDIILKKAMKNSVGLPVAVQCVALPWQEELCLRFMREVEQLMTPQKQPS
# Experimental details: Inhibition of FAAH in rat brain homogenates using [3H]-anandamide as substrate assessed as formation of [3H]-ethanolamine at 10 uM relative to control
# Assay type: tissue-based
# Assay setup: values are per cent of control
Record form. Attribute: residual activity. Fill in for each entry.
Please respond with the number in % and leave the unit unwritten.

# input molecule: O=c1oc(Cc2ccccc2)nn1-c1ccccc1 ; wanted: its residual activity 97

Give the measured residual activity of COc1nn(-c2cccc(Cl)c2)c(=O)o1 . 5

# query: residual activity of entry O=c1oc(OCc2ccccc2)nn1Cc1ccccc1 86

Endpoint output: residual activity of O=c1oc(-c2ccccc2)nn1-c1ccccc1 . Value? 110

Name the reported residual activity value associated with the molecule O=c1oc(N2CCOCC2)nn1-c1cccc(Cl)c1 104

Name the reported residual activity value associated with the molecule O=C(c1ccccc1)c1nn(-c2ccccc2)c(=O)o1 84

---

# Tested on: Fatty-acid amide hydrolase 1 (Homo sapiens)
# Sequence (O00519 whole entry): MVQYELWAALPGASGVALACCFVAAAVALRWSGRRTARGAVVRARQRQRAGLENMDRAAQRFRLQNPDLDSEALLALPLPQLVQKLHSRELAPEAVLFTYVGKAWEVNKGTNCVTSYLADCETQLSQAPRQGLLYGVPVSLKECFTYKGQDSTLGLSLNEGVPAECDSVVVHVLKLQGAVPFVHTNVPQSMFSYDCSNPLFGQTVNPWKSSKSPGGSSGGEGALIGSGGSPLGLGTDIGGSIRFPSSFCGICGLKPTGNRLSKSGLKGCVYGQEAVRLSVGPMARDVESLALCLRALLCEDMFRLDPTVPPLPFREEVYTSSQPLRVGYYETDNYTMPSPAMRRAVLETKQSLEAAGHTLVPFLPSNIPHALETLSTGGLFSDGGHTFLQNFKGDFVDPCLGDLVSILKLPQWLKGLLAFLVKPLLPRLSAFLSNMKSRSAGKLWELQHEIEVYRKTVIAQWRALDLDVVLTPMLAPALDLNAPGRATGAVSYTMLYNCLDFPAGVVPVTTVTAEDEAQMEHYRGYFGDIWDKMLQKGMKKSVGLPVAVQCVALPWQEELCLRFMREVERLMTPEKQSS
Measured endpoint: IC50 (nM)
Hi! Could you send only the number? It should be in nM, unit omitted.

Given the entry COc1nn(-c2ccc(Oc3ccccc3)cc2)c(=O)o1 , report its measured IC50. 6.1
